Biological target: Glutamate receptor 2 (Rattus norvegicus) (UniProt P19491)
Sequence (P19491 whole entry): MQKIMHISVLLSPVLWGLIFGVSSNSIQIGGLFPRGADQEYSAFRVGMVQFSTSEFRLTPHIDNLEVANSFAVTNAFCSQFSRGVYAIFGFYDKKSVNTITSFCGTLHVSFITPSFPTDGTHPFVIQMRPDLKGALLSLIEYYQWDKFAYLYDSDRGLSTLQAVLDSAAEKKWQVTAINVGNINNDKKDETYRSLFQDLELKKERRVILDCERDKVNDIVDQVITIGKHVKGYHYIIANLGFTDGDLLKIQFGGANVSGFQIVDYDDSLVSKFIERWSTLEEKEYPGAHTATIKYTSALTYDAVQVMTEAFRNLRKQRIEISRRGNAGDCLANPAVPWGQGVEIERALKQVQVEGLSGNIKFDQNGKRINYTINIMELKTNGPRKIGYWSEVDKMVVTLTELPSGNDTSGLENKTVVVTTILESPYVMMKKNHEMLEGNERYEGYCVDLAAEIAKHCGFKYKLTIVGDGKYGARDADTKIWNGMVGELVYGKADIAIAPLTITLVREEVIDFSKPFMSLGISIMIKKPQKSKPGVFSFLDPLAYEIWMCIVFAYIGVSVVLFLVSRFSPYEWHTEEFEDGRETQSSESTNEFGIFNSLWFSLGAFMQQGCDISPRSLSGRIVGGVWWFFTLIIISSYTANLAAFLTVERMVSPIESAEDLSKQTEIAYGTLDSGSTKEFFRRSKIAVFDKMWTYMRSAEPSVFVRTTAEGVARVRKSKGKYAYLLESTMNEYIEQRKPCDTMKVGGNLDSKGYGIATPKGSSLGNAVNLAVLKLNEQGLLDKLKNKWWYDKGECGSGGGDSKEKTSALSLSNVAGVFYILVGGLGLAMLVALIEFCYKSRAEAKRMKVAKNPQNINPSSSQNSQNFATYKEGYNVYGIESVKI
Assay: Positive allosteric modulation of GluA2 receptor in rat embryonic cortex neuron assessed as concentration required to 2 fold increase of AMPA-induced membrane depolarization by fluorescence assay
Measurement kind: log10 of Activity (log10 of the value in µM)
The figures below represent log10 of Activity, where Activity is stated in µM.

Query :: Please report the measured log10 of Activity for N#Cc1ccc2c(c1)S(=O)(=O)NCN2C1CC1 tested on Glutamate receptor 2 (Rattus norvegicus) (UniProt P19491).
Result :: -0.33

Query :: Please report the measured log10 of Activity for O=S1(=O)NCN(C2CC2)c2ccc(Br)cc21 tested on Glutamate receptor 2 (Rattus norvegicus) (UniProt P19491).
Result :: 0.10

Query :: Please report the measured log10 of Activity for O=S1(=O)NCN(C2CC2)c2ccc(F)cc21 tested on Glutamate receptor 2 (Rattus norvegicus) (UniProt P19491).
Result :: -0.57

Query :: Please report the measured log10 of Activity for O=S1(=O)NCN(C2CC2)c2ccccc21 tested on Glutamate receptor 2 (Rattus norvegicus) (UniProt P19491).
Result :: -0.14

Query :: Please report the measured log10 of Activity for Cc1ccc2c(c1)S(=O)(=O)NCN2C1CC1 tested on Glutamate receptor 2 (Rattus norvegicus) (UniProt P19491).
Result :: 0.71

Query :: Please report the measured log10 of Activity for O=S1(=O)NCN(C2CC2)c2ccc(Cl)cc21 tested on Glutamate receptor 2 (Rattus norvegicus) (UniProt P19491).
Result :: -0.12

----------
Target: Glutamate receptor 2 (Rattus norvegicus, UniProt P19491)
Sequence (P19491 whole entry): as above
Test: Positive allosteric modulation of GluA2 receptor in rat embryonic cortex neuron assessed as increase of AMPA-induced membrane depolarization by fluorescence assay
Binary label based on EC50 with cut-off 3 µM: below gives true, not below gives false.

Query :: Please indicate whether the reported EC50 of N#Cc1ccc2c(c1)S(=O)(=O)NCN2C1CC1 is strictly below 3 µM.
Result :: true

Query :: Please indicate whether the reported EC50 of O=S1(=O)NCN(C2CC2)c2ccc(F)cc21 is strictly below 3 µM.
Result :: true

Query :: Please indicate whether the reported EC50 of O=S1(=O)NCN(C2CC2)c2ccc(Br)cc21 is strictly below 3 µM.
Result :: false

Query :: Please indicate whether the reported EC50 of O=S1(=O)NCN(C2CC2)c2ccc(Cl)cc21 is strictly below 3 µM.
Result :: false

Query :: Please indicate whether the reported EC50 of O=S1(=O)NCN(C2CC2)c2ccccc21 is strictly below 3 µM.
Result :: false

----------
Target: UniProtKB P19491
Test: Positive allosteric modulation of GluA2 receptor in rat embryonic cortex neuron assessed as increase of AMPA-induced membrane depolarization by fluorescence assay relative to AMPA
Provide the reported fold change (FC) of each item.
Lab note: record just the number, no unit beside it.

Query :: Specify measured fold change (FC) for O=S1(=O)NCN(C2CC2)c2ccccc21 .
Result :: 8.5

Query :: Specify measured fold change (FC) for O=S1(=O)NCN(C2CC2)c2ccc(Cl)cc21 .
Result :: 10.9

Query :: Specify measured fold change (FC) for Cc1ccc2c(c1)S(=O)(=O)NCN2C1CC1 .
Result :: 8.7

Query :: Specify measured fold change (FC) for O=S1(=O)NCN(C2CC2)c2ccc(F)cc21 .
Result :: 15

Query :: Specify measured fold change (FC) for O=S1(=O)NCN(C2CC2)c2ccc(Br)cc21 .
Result :: 9.3

Query :: Specify measured fold change (FC) for N#Cc1ccc2c(c1)S(=O)(=O)NCN2C1CC1 .
Result :: 9.2

Where do the numbers come from? From ChEMBL document CHEMBL2439972.
